Origin of measurements: the Immune Epitope Database (IEDB)

Each entry below carries its recorded pKd.
biological target: HLA-A*02:03; experiment: IEDB peptide-MHC binding, purified MHC/competitive/radioactivity; filed as Kd, often an IC50 or EC50 that approximates it; bounds were set here for any values at or beyond the usual limits of such assays; details: source organism: SARS coronavirus Tor2
// returns pKd (minus log10 of molar concentration), number only

>  <Sequence Data>
CVMYASALV

>  <Experimental Result>
8.53

$$$$
>  <Sequence Data>
SLVKPTVYV

>  <Experimental Result>
7.43

$$$$

Name the recorded pKd of the sequence listed here: "CLDAGINYV"
8.19

---

biological target: HLA-A*32:01; experiment: IEDB peptide-MHC binding, purified MHC/competitive/radioactivity; filed as Kd, often an IC50 or EC50 that approximates it; bounds were set here for any values at or beyond the usual limits of such assays; settings: source organism: Vaccinia virus WR
Each entry below carries its recorded Kd.
Write down the numeric answer in nM and omit the unit.

Example cases with answers are listed next.
>  <Sequence Data>
VLFEVFVVF

>  <Property Name>
Kd

>  <Experimental Result>
7.8

$$$$
>  <Sequence Data>
ETNYYIHPI

>  <Property Name>
Kd

>  <Experimental Result>
368

$$$$
>  <Sequence Data>
RLANNKVTI

>  <Property Name>
Kd

>  <Experimental Result>
1.54

$$$$
>  <Sequence Data>
MIMYLVLGI

>  <Property Name>
Kd

>  <Experimental Result>
97.9

$$$$

Name the recorded Kd of the sequence listed here: "TMKERRPIL"
2210

Name the recorded Kd of the sequence listed here: "LLLWFNYLF"
1.45
